Test system: RPMI-8226
experimental-details: NCI tumour cell line growth inhibition, 48 h
The source made the active and inactive calls. Cut-off read from the data, not from the text of the source: active = GI50 up to about 1.1 µM and inactive = higher. Square brackets hold non-standard residues; d marks the D form. Peptide text beside a SMILES is read from it. * marks the point of attachment. ξ: configuration not given here. NMeY = CN[C@@H](Cc1ccc(O)cc1)C(=O)O; Cbz = O=C(OCc1ccccc1)*; ξA = CC(N)C(=O)O
The categories you may choose from are active, inactive

Exam item: Please let me know the test result on file for CCO/C([O-])=C(\C(=O)c1ccccc1)[n+]1c(C)n(C)c2ccccc21 .
Marked response: inactive

Exam item: Assay result, entry COc1c2c(c(OC)c3c(=O)cc(C/C(=N/NC(=O)C[n+]4ccccc4)C(=O)Nc4cc(C)ccc4C)oc13)OCO2 — outcome?
Marked response: inactive

Exam item: Assay outcome for Nc1nc(O)c(Br)c(-c2cccc([N+](=O)[O-])c2)n1 : what was it?
Marked response: inactive

Exam item: For CN(CCNC(=O)c1cn(C)c2c1ccc1cc(Cl)c(Cl)cc12)CCNC(=O)c1cn(C)c2c1ccc1cc(Cl)c(Cl)cc12 , what call appears in the results of this test?
Marked response: inactive

Exam item: Just curious, what result did O=C(Nc1ccc(-c2cn3ccccc3n2)cc1)c1cc(Br)ccc1O get here?
Marked response: inactive

Exam item: // return assay outcome for C/C(=N\Nc1nc2ccccc2[nH]1)c1ncccn1
Marked response: active

Exam item: Entry NC(=O)C1CCCNC1 (configuration not stated) : call = ?
Marked response: inactive

Exam item: Hi, do you know how Nc1ncc(CN2CCOCC2)c(-c2ccccc2O)n1 came out in this test?
Marked response: inactive

Exam item: Call for entry O=c1[nH]c(-c2ccc(Cl)cc2)cc2ccsc12 :
Marked response: inactive

Exam item: Which result was noted for this compound in the test: O=C(O)C1=CCCc2ccc3ccccc3c21
Marked response: inactive

Exam item: For CSc1c(CC(=O)O)n(Cc2ccccc2)c2ccccc12 , which call appears in the assay record?
Marked response: inactive

Exam item: I would be grateful if you could indicate the recorded call for CN(C)CCONC(=O)C12CC3CC(CC(C3)C1)C2 .
Marked response: inactive

Exam item: Please indicate how the test categorized Cc1ccc(S(=O)(=O)NC(=O)Nc2nnc(S(N)(=O)=O)s2)cc1 .
Marked response: inactive

Exam item: Call for entry O=c1[nH]c2ccc(C(F)(F)F)cc2nc1C(F)(F)F :
Marked response: inactive

Exam item: Look up the recorded call for CN(C)/N=C(/c1nc2ccc([N+](=O)[O-])cc2nc1O)C(O)c1ccco1 (configuration not stated) in this test.
Marked response: inactive

Exam item: Can you look up the reported call for S=P1(c2ccccc2)Nc2ccc(Cl)cc2N1 (configuration not stated) for me?
Marked response: inactive

Exam item: Query: recorded result category for CCOC(=S)SSSC(=S)OCC in this test
Marked response: inactive

Exam item: What classification did C/C=C1\CN2CCc3c([nH]c4ccccc34)C2C=C1CCO (configuration not stated) end up with in this test?
Marked response: inactive

Exam item: Hi team, can someone confirm the assay call for Cc1c(C(=O)O)n2cnnc2c2ccccc12 ?
Marked response: inactive

Exam item: Please let me know the test result on file for COc1ccc(C[C@@H]2CN(C(=O)c3ccccc3)[C@H](Cc3ccc(O)cc3)CN2C(=O)c2ccccc2)cc1Br .
Marked response: inactive

Exam item: How was COc1ccc(C[C@@H](C(=O)N[C@@H](C)C(N)=O)N(C)C(=O)[C@@H]2CCCN2C(=O)[C@H](CC(C)C)NC(=O)C(C)NC(=O)OCc2ccccc2)cc1 (some centres not stated) (Cbz-[ξA]LP[NMeY](Me)A-NH2) classified in this test?
Marked response: inactive

Exam item: Please let me know the test result on file for S=C1c2ccc(Cl)cc2-n2cnnc2C2CSCN12 (configuration not stated) .
Marked response: inactive

---

Test system: SK-MEL-5
experimental-details: NCI tumour cell line growth inhibition, 48 h
The source made the active and inactive calls. No stated cut-off is given here; in the data, active = GI50 up to about 1.1 µM and inactive = higher.
Classes to choose from: TRUE (active), FALSE (inactive)

Exam item: Each molecule tested received a call. Report the one for c1ccc2c(CN3CCC(C4CCN(Cc5cccc6ccccc56)CC4)CC3)cccc2c1 .
Marked response: FALSE

Exam item: How was O=C(O)CNS(=O)(=O)c1ccc(NC(=O)c2cccc([N+](=O)[O-])c2)cc1 classified in this test?
Marked response: FALSE

Exam item: Which outcome did this test record for the molecule CCOC(=O)c1cn2c(n1)sc1cc(F)ccc12 ?
Marked response: FALSE

Exam item: Hi team, can someone confirm the assay call for COC(=O)/C(=N\NC(C)(C)C)C(C(=O)OC)C(=O)C(=O)Nc1cc(Cl)ccc1Cl (stereo unspecified) ?
Marked response: FALSE

Exam item: State the result this test recorded for COc1cc(/C=C/c2nc(N)nnc2C)cc(OC)c1OC .
Marked response: FALSE

Exam item: Called result for CC(=O)OC1CCC2(C)C(CCC3C2CCC2(C)C(c4ccc(=O)oc4)C(OC(C)=O)CC32O)C1 (stereo unspecified)
Marked response: TRUE

Exam item: Identify the outcome logged in this assay for the molecule shown: N[C@H](C(=O)O)[C@@H]1CC(Cl)=NO1
Marked response: FALSE

Exam item: What outcome does the record of this test show for COc1ccc(C/C=C(\C)CCO)cc1 ?
Marked response: FALSE

Exam item: For CCN(CC)c1nc(N(C)C)c2cc(OC)ccc2n1 , which call appears in the assay record?
Marked response: FALSE

Exam item: Each molecule tested received a call. Report the one for CCC1=C(c2ccc(OC)cc2)CC[C@@]2(CCNC2=O)[C@@H]1C .
Marked response: FALSE

Exam item: Which result was noted for this molecule in the test: Nc1ccc(C(=O)Nc2ccccc2N)cc1
Marked response: FALSE

---

System: DU-145
experimental-details: NCI tumour cell line growth inhibition, 48 h
Calls of active or inactive are those of the source. Cut-off read from the data, not from the text of the source: active = GI50 up to about 1.1 µM and inactive = higher.
Field: GI50. Provide a value for each of the compounds that follow.

Exam item: State its GI50 on DU-145: COC(=O)c1cc(C)ccc1C1CN=NC12Cc1cccc(C)c1C2=O (stereo unspecified)
Marked response: 42.5 µM (inactive)

Exam item: Find GI50 (DU-145) for the entry S=c1nc2[nH]c3ccc(Br)cc3c2n[nH]1
Marked response: 85.3 µM (inactive)

Exam item: Please provide the recorded GI50 for COc1ccc(/C(CCl)=C(\Nc2ccccc2)c2ccc(OC)c(OC)c2)cc1OC , tested on DU-145.
Marked response: > 100 µM (inactive)

Exam item: For the record CCN(CC)c1nc(N(C)C)c2cc(OC)ccc2n1 , what value of GI50 is listed for DU-145?
Marked response: 42.2 µM (inactive)

Exam item: State its GI50 on DU-145: Brc1ccc2c(c1)C1=C(CO2)Cc2ccccc2O1
Marked response: 21.5 µM (inactive)

Exam item: Fill in the recorded GI50 for this compound, with DU-145 as test system: CN(C)CCCc1c2ccccc2nc2ccc(Cl)cc12
Marked response: 21.4 µM (inactive)

---

Tested on: LXFL 529
experimental-details: NCI tumour cell line growth inhibition, 48 h
Calls of active or inactive are those of the source. Cut-off read from the data, not from the text of the source: active = GI50 up to about 1.1 µM and inactive = higher.
// classify into Y (active), N (inactive)

Exam item: Name the outcome recorded for Clc1ccc(C[P+](c2ccccc2)(c2ccccc2)c2ccccc2)c(Cl)c1 in the assay.
Marked response: N

Exam item: Which outcome did this test record for the compound O=C(c1ccccc1)[C@H]1Nc2ccc(Cl)cc2[C@H]2CCC[C@@H]12 ?
Marked response: N

Exam item: Recorded test call requested for CNC(=O)OCc1c2ccncc2c(C)c2c1[nH]c1ccc(OC)cc12
Marked response: Y

Exam item: Given CCc1cccc(C(C)CC)c1/N=C(/NC(=O)c1ccccc1C(=O)N/C(=N/c1c(CC)cccc1C(C)CC)SC)SC (centres undefined) , state the outcome it received in this test.
Marked response: N

Exam item: For this compound, state the assay outcome: CC(=O)O[C@H]1CC[C@@]2(C)C(=CC[C@@H]3C2CC[C@]2(C)Nc4nc5ccccc5cc4CC32)C1 (some centres undefined)
Marked response: N

Exam item: How did this test come out for Cc1ccc(C)c(N2C(=O)C(=O)C(c3nc4ccccc4s3)/C(=N\c3cccc4c(=O)[nH][nH]c(=O)c34)C2=O)c1 (centres undefined) ?
Marked response: N

Exam item: Per the records of this test, what outcome belongs to CN(C)CCSc1cccc(-c2cc(-c3cccc(SCCN(C)C)c3)nc(SCCN(C)C)n2)c1 ?
Marked response: N

Exam item: Which outcome did this test record for the compound Cc1cc(N(CCC#N)S(=O)(=O)c2ccccc2)ccc1/C=N/c1ccc(C(=O)O)cc1 ?
Marked response: N

Exam item: Name the outcome recorded for CN(C)CCONC(=O)C12CC3CC(CC(C3)C1)C2 in the assay.
Marked response: N

---

System: OVCAR-5
experimental-details: NCI tumour cell line growth inhibition, 48 h
Calls of active or inactive are those of the source. Cut-off read from the data, not from the text of the source: active = GI50 up to about 1.1 µM and inactive = higher. Positions of bridges follow the written chain, without caps; N, C: chain ends. Residues, ends and D or L forms follow the SMILES beside them.
// one of active, inactive, no free text

Exam item: // outcome(item) with item = CCOC(=O)NC(Nc1ccc(Cl)cn1)(C(F)(F)F)C(F)(F)F
Marked response: inactive

Exam item: Each compound tested received a call. Report the one for COC(=O)c1ccc(Cl)cc1NC(=O)C1CCCCC1 .
Marked response: inactive

Exam item: Please indicate how the test categorized CCOc1ccccc1NC(=O)C(=O)c1c(O)c2ccc(O)cc2oc1=O .
Marked response: inactive

Exam item: Name the outcome recorded for COC(=O)C1CCC(=O)NCCCCC(NC(=O)C(N)CC(=O)O)C(=O)N1 (stereo not drawn) (H-Asp-Lys-Glu-OMe; lactam 2-3; configuration not given here) in the assay.
Marked response: inactive

Exam item: Assay outcome for CC1=C(N2CC2)C(=O)c2nc3n(c2C1=O)CCC3OC(=O)CCl (stereo not drawn) : what was it?
Marked response: active

Exam item: For C=C1C(=O)O[C@H]2C1C[C@@H](OC(C)=O)/C(C)=C/CC[C@@]1(C)O[C@H]21 (stereo partly drawn) , which call appears in the assay record?
Marked response: inactive

Exam item: Record lookup: outcome of this test for CC1=CC(c2ccccc2)OP1(=O)c1ccccc1 (stereo not drawn) ?
Marked response: inactive

Exam item: Status in this test for CO[C@H]1[C@H](O)[C@H](O[C@H]2CC[C@@]3(C)[C@H](CC[C@@H]4[C@@H]3CC[C@]3(C)[C@@H](C5=CC(=O)OC5)CC[C@]43O)C2)O[C@@H](C)[C@@H]1O ?
Marked response: active
